Biological target: D2 receptors (Chlorocebus aethiops, UniProt P52702)
Sequence (P52702 whole entry): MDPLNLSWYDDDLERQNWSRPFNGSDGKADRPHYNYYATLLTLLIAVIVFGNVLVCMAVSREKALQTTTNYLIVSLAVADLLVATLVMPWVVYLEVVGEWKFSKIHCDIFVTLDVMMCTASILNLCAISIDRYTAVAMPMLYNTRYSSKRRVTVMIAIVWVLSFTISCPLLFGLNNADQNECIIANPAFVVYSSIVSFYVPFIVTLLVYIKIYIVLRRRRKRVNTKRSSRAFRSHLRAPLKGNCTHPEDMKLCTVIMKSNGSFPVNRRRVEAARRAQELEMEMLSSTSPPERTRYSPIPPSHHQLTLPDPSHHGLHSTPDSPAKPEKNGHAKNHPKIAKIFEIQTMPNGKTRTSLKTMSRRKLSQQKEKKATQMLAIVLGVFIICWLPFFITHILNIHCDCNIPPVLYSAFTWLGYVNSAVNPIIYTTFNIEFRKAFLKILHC
Test: D2 receptor binding assay (3H-YM 09151-2)
Conditions: Table 1; COS cell pellets with recombinant receptor, 0.5 nM 3H-YM 09151-2
observed-property: pKi
One number for each entry, as −log10 of the molar value.

Value of pKi reported for the compound c1cnc(N2CCN(CCNc3ccc4ccccc4n3)CC2)nc1 [Compound 1] is 5.57
